TARGET OF ASSAY: Histone deacetylase 3 (Homo sapiens, UniProt O15379)
Sequence (O15379 whole entry): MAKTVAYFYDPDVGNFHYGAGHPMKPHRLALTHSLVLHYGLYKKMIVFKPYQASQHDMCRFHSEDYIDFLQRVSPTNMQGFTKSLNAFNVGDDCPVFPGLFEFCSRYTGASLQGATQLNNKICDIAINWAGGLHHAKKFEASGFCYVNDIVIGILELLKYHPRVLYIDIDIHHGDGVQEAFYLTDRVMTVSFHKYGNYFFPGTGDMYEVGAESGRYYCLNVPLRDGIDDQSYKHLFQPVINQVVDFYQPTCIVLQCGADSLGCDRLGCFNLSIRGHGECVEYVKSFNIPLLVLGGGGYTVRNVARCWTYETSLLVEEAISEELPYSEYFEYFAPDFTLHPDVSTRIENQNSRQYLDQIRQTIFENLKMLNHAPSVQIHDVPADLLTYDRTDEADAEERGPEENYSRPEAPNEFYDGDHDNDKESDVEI
TEST: Inhibition of human KDAC3 at 30 uM using FITC-labeled p53 acetylated peptide as substrate after 60 mins by fluorescence assay relative to control
ENDPOINT NAME: inhibition

CC(C)(C)OC(=O)C[C@@H]1N=C(c2ccccc2)c2ccccc2NC1=O : 3.95%
O=C(O)C[C@H]1N=C(c2ccccc2)c2ccccc2NC1=O : 0%
O=C(O)C[C@@H]1N=C(c2ccccc2)c2ccccc2NC1=O : 0%
COC(=O)CCCCN1C(=O)[C@H](CC(C)C)N=C(c2ccccc2)c2ccccc21 : 0%
COC(=O)CCCCN1C(=O)[C@H](CCSC)N=C(c2ccccc2)c2ccccc21 : 0%

Input: Using the record for O=C(O)CCCCN1C(=O)[C@H](Cc2cncn2C(c2ccccc2)(c2ccccc2)c2ccccc2)N=C(c2ccccc2)c2ccccc21 , report its inhibition.
Output: 0%

Input: Item COC(=O)CCCCN1C(=O)[C@H](CCCCNC(=O)OC(C)(C)C)N=C(c2ccccc2)c2ccccc21 has what recorded inhibition?
Output: 1.96%

Input: What value of measured inhibition is listed for O=C(O)CCCCN1C(=O)[C@H](Cc2ccccc2)N=C(c2ccccc2)c2ccccc21 ?
Output: 0.91%

Input: // lookup inhibition for CC(C)(C)OC(=O)n1cc(C[C@@H]2N=C(c3ccccc3)c3ccccc3NC2=O)c2ccccc21
Output: 1.32%

Input: Field request: inhibition | item: CC(C)(C)OC[C@@H]1N=C(c2ccccc2)c2ccccc2N(CCCCC(=O)O)C1=O
Output: 0%

Input: Value lookup for inhibition; key = O=C(CCCCN1C(=O)[C@H](Cc2ccc(O)cc2)N=C(c2ccccc2)c2ccccc21)NO
Output: 86.4%

Input: Given the molecule O=C(CCCNC(=O)CC[C@@H]1N=C(c2ccccc2)c2ccccc2NC1=O)NO , what is its reported inhibition?
Output: 87.2%

Input: Look at this molecule and give its reported inhibition. CSCC[C@@H]1N=C(c2ccccc2)c2ccccc2NC1=O
Output: 0%

Input: GET /values?readout=inhibition&item= Cc1c(C)c(S(=O)(=O)NC(=N)NCCC[C@@H]2N=C(c3ccccc3)c3ccccc3N(CCCCC(=O)O)C2=O)c(C)c2c1OC(C)(C)C2
Output: 3.8%

Input: // lookup inhibition for O=C(CCCCN1C(=O)[C@H](Cc2cnc[nH]2)N=C(c2ccccc2)c2ccccc21)NO
Output: 99%

Input: Given the molecule CC(C)(C)OC(=O)NCCCC[C@@H]1N=C(c2ccccc2)c2ccccc2N(CCCCC(=O)NO)C1=O , what is its reported inhibition?
Output: 98.8%

Input: inhibition for O=C(CCCCN1C(=O)[C@H](CCC(=O)NC(c2ccccc2)(c2ccccc2)c2ccccc2)N=C(c2ccccc2)c2ccccc21)NO ?
Output: 99.1%

Input: Name the reported inhibition value associated with the molecule O=C(CCCCN1C(=O)[C@@H](CS)N=C(c2ccccc2)c2ccccc21)NO
Output: 100%

Input: Could you share which inhibition value was measured for CC(C)C[C@@H]1N=C(c2ccccc2)c2ccccc2NC1=O ?
Output: 0%

Input: Can you share its inhibition? I mean this molecule: O=C(O)CC[C@@H]1N=C(c2ccccc2)c2ccccc2N(CCCCC(=O)NO)C1=O
Output: 79.8%

Input: Request the reported inhibition associated with CC(C)C[C@@H]1N=C(c2ccccc2)c2ccccc2N(CCCCC(=O)O)C1=O
Output: 0%

###

TARGET OF ASSAY: Protein deacetylase HDAC6 (Homo sapiens)
Sequence (Q9UBN7 whole entry): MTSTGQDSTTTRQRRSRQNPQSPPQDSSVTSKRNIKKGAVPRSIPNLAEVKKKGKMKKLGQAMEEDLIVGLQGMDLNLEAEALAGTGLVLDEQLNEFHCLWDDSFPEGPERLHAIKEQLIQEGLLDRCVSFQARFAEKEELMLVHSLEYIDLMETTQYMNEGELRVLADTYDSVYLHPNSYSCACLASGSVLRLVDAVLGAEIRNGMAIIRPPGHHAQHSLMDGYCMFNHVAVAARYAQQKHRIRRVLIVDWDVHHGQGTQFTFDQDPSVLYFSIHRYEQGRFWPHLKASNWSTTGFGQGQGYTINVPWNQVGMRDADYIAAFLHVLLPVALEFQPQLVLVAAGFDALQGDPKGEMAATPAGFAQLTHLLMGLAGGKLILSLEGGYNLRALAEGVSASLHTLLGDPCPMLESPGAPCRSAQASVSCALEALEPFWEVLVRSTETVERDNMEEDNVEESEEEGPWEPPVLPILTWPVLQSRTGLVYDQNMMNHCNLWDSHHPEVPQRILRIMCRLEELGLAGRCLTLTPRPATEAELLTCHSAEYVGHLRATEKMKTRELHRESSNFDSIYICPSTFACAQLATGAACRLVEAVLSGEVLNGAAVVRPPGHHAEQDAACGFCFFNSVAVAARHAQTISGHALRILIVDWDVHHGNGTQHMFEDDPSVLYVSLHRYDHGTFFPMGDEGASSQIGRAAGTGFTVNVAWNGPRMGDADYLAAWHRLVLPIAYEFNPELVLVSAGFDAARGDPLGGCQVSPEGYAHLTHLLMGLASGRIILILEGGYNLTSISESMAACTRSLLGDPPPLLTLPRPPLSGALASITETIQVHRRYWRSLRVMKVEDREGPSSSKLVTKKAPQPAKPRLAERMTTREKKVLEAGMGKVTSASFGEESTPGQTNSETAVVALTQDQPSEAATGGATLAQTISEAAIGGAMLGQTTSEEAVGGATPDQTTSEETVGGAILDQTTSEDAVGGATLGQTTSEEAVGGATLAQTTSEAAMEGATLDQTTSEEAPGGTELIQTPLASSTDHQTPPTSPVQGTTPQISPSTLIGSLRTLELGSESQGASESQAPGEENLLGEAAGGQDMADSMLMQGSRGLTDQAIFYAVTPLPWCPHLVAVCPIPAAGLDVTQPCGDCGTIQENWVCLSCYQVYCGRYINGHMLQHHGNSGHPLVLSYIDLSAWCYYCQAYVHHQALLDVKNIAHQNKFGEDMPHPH
ENDPOINT NAME: pIC50
Reminder that pIC50 is minus the log10 of a molar concentration.

Input: I'd like to know its pIC50. The compound in question is C[C@@H](O)[C@@H]1N=C(c2ccccc2)c2ccccc2N(CCCCC(=O)NO)C1=O
Output: 4.94

Input: # lookup: pIC50 of CC(C)(C)OC(=O)NCCCC[C@@H]1N=C(c2ccccc2)c2ccccc2N(CCCCC(=O)NO)C1=O
Output: 5.51

Input: What does the data say about its pIC50? Entry: O=C(CCCNC(=O)C[C@@H]1N=C(c2ccccc2)c2ccccc2NC1=O)NO
Output: 5.75

###

TARGET OF ASSAY: Histone deacetylase 8 (Homo sapiens, UniProt Q9BY41)
Sequence (Q9BY41 whole entry): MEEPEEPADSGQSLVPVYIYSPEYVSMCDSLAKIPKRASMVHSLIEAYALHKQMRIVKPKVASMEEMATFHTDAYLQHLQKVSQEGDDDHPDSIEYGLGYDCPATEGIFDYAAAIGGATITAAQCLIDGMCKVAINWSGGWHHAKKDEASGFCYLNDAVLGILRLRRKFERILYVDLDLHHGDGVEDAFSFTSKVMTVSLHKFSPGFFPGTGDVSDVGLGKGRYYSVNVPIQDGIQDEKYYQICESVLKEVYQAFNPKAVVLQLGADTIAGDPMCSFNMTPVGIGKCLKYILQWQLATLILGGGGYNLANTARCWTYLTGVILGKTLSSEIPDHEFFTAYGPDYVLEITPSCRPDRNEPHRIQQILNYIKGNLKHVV
ENDPOINT NAME: IC50

Answered cases to consult:
COC(=O)CCCCN1C(=O)[C@H]([C@@H](C)OCc2ccccc2)N=C(c2ccccc2)c2ccccc21 : > 30 µM
O=C(O)CC[C@@H]1N=C(c2ccccc2)c2ccccc2N(CCCCC(=O)NO)C1=O : > 30 µM
NC(=O)CC[C@@H]1N=C(c2ccccc2)c2ccccc2N(CCCCC(=O)NO)C1=O : > 30 µM
CC[C@H](C)[C@@H]1N=C(c2ccccc2)c2ccccc2NC1=O : > 30 µM
O=C(CCCCN1C(=O)[C@@H](CS)N=C(c2ccccc2)c2ccccc21)NO : 8.11 µM

Input: // lookup IC50 for O=C(O)C[C@H]1N=C(c2ccccc2)c2ccccc2NC1=O
Output: > 30 µM

Input: Return reported IC50; argument: O=C(CCCCN1C(=O)[C@H](Cc2ccccc2)N=C(c2ccccc2)c2ccccc21)NO
Output: 12.7 µM

###

TARGET OF ASSAY: Histone deacetylase 3 (Homo sapiens, UniProt O15379)
TEST: Inhibition of human KDAC3 at 30 uM using FITC-labeled p53 acetylated peptide as substrate after 60 mins by fluorescence assay relative to control
ENDPOINT NAME: inhibition (%)
Could you give me the number in %? Just the number is fine.

Input: Request: inhibition, test system Histone deacetylase 3 (Homo sapiens, UniProt O15379), entry O=C(C[C@H]1N=C(c2ccccc2)c2ccccc2NC1=O)NO
Output: 1.64

Input: # get_value(readout= inhibition, system= Histone deacetylase 3 (Homo sapiens, UniProt O15379)) for O=C(C[C@@H]1N=C(c2ccccc2)c2ccccc2NC1=O)NO
Output: 0

Input: Entry CC(C)(C)OC(=O)C[C@H]1N=C(c2ccccc2)c2ccccc2NC1=O , system Histone deacetylase 3 (Homo sapiens, UniProt O15379): what inhibition was measured?
Output: 0

Input: Form: Entry = CC(C)(C)SC[C@H]1N=C(c2ccccc2)c2ccccc2NC1=O | System = Histone deacetylase 3 (Homo sapiens, UniProt O15379) | inhibition = ____
Output: 2.88

Input: Request - read-out inhibition | tested on Histone deacetylase 3 (Homo sapiens, UniProt O15379) | molecule CC[C@H](C)[C@@H]1N=C(c2ccccc2)c2ccccc2NC1=O
Output: 0.56

Input: Field: inhibition (Histone deacetylase 3 (Homo sapiens, UniProt O15379)). Entry: O=C(CCCCN1C(=O)[C@H](Cc2ccccc2)N=C(c2ccccc2)c2ccccc21)NO
Output: 97

Input: Form field: inhibition recorded for CC(C)(C)Oc1ccc(C[C@@H]2N=C(c3ccccc3)c3ccccc3N(CCCCC(=O)O)C2=O)cc1 with Histone deacetylase 3 (Homo sapiens, UniProt O15379) (enter value)
Output: 1.05

Input: Recall the recorded inhibition for COC(=O)CCCCN1C(=O)[C@H]([C@@H](C)OCc2ccccc2)N=C(c2ccccc2)c2ccccc21 with Histone deacetylase 3 (Homo sapiens, UniProt O15379) and state it.
Output: 7.91

Input: Identify the measured inhibition of O=C(CCCCN1C(=O)[C@H](CC(=O)NO)N=C(c2ccccc2)c2ccccc21)NO for Histone deacetylase 3 (Homo sapiens, UniProt O15379).
Output: 77.7

Input: # get_value(readout= inhibition, system= Histone deacetylase 3 (Homo sapiens, UniProt O15379)) for C[C@@H]1N=C(c2ccccc2)c2ccccc2N(CCCCC(=O)O)C1=O
Output: 0
